Reference source: patent US9833497B2

System: Aeromonas hydrophila
Assay: MIC against Gram-negative bacteria: Aeromonas hydrophila
Assay type: cell-based
Details: 96-well plate, 5×10^5 CFU/mL, 37° C., 10 h
Reported MIC against A. hydrophila is given for each of the following substances.
Give your result as the value with the unit written after it.

PRT482 (ECIDDETEEICGGHGKCYCGNCYCKAGWHGDKCE; listed as Homo sapiens); 50 µg/mL
PRT546 (CDCHEAGTAPGVCDPLTGQCYCKENVQGPKCDQCSLGTFSLDAANPKGCTR; listed as Homo sapiens); 50 µg/mL

Now for the substance whose MIC against A. hydrophila we want.
What does the data say about its MIC against A. hydrophila? Entry: PRT451 (SFYCSCRPGYKLMSDKRTCVDIDE; listed as Homo sapiens) 50 µg/mL

====

System: Pseudomonas aeruginosa
Assay: MIC against Gram-negative bacteria: Pseudomonas aeruginosa
Format: cell-based
Details: Pseudomonas aeruginosa; 96-well plate, 5×10^5 CFU/mL, 37° C., 10 h
measurement_name: MIC against P. aeruginosa (µg/mL)
The figure you give is taken to be in µg/mL; do not add the unit.

Check out these entries, answers already filled in.
PRT1222 (SVNYCECNPCFNGGSCQSGVDSYYCHCPFGVFGKHCE; listed as Homo sapiens); 50
PRT1337 (QTSACGPYVQFCHIHATCEYSNGTASCICKAGYEGDGTLCS; listed as Homo sapiens); 12.5

Tell me the measured MIC against P. aeruginosa of PRT1331 (EIDPCADGLNGGCHEHATCKMTGPGKHKCECKSHYVGDGLNCE; listed as Homo sapiens) , please. 25

Look up MIC against P. aeruginosa for this substance: PRT1309 (EVDPCAHGHGGCSPHANCTKVAPGQRTCTCQDGYMGDGELCQ; listed as Homo sapiens) 12.5

Given the entry PRT1323 (DCIECPGGAGSPCNGRGSCAEGMEGNGTCSCQEGFGGTACE; listed as Homo sapiens) , report its measured MIC against P. aeruginosa. 12.5

Name the reported MIC against P. aeruginosa value associated with the substance PRT1315 (FGPDCQSVCSCVHGVCNHGPRGDGSCLCFAGYTGPHCD; listed as Homo sapiens) 12.5

I am curious: what MIC against P. aeruginosa value has been reported for PRT1248 (SACYCSATSRCDPQTGACLCHAGWWGRSCN; listed as Homo sapiens) ? 25

Field request: MIC against P. aeruginosa | item: PRT1339 (EINNCLLPSAGGCHDNASCLYVGPGQNECECKKGFRGNGIDCE; listed as Homo sapiens) 12.5

====

Reported MIC values follow for various substances
Test system: Serratia marcescens
Assay: MIC against Gram-negative bacteria: Serratia marcescens
Format: cell-based
Conditions: S. marcescens; 10 h cultivation at 37° C.
Dear colleague, please return just the value in µg/mL, with no unit written.

Examples with their reported MIC follow.
PRT990 (LDDACVSNPCHEDAICDTNPVNGRAICTCPPGFTGGACD; listed as Homo sapiens); 25
PRT912 (DVNECLSNPCDARGTQNCVQRVNDFHCECRAGHTGRRCE; listed as Homo sapiens); 50
PRT956 (NIDDCAFASCTPGSTCIDRVASFSCMCPEGKAGLLCH; listed as Homo sapiens); 25
PRT951 (WTDACLSHPCANGSTCTTVANQFSCKCLTGFTGQKCE; listed as Homo sapiens); 100
PRT921 (NIDDCASAACFHGATCHDRVASFYCECPHGRTGLLCH; listed as Homo sapiens); 12.5
PRT943 (PNVSCDIAASRRGVLVEHLCQHSGVCINAGNTHYCQCPLGYTGSYCE; listed as Homo sapiens); 50

What value of measured MIC is listed for PRT896 (EVNECNSNPCVHGACRDSLNGYKCDCDPGWSGTNCD; listed as Homo sapiens) ? 12.5

// query MIC value for entry PRT926 (EINECQSNPCVNNGQCVDKVNRFQCLCPPGFTGPVCQ; listed as Homo sapiens) 12.5

Entry PRT1009 (DVDECLDQPCHPTGTAACHSLANAFYCQCLPGHTGQWCE; listed as Homo sapiens) has what MIC? 100

I have this substance here, PRT979 (LPDPCLSSPCAHGARCSVGPDGRFLCSCPPGYQGRSCR; listed as Homo sapiens) , and I need its recorded MIC. 12.5

# input substance: PRT942 (LVNLCSRSPCKNKGTCVQKKAESQCLCPSGWAGAYCD; listed as Homo sapiens) ; wanted: its MIC 50

====

Test system: Pseudomonas aeruginosa
Assay: MIC against Gram-negative bacteria: Pseudomonas aeruginosa
Type: cell-based
Conditions: P. aeruginosa; 10 h cultivation at 37° C.; 5×10^5 CFU/mL
measurement_name: MIC (μg/mL) P. aeruginosa (µg/mL)
Could you give me the number in µg/mL? Just the number is fine.

Some solved entries appear below for comparison.
PRT809 (NESCTCANGAACSPIDGSCSCTPGWLGDTCE; listed as Homo sapiens); 25
PRT183 (ECIPHNGCRHGTCSTPWQCTCDEGWGGLFCD; listed as Homo sapiens); 12.5
PRT236 (TKTSCAKCPPNASCVNNTHCTCNHGYTSGSGQKLFTFPLETCN; listed as Homo sapiens); 100
PRT825 (FGPNCTHVCGCGQGAACDPVTGTCLCPPGRAGVRCE; listed as Homo sapiens); 25

Item PRT871 (CYCNPLGSIHDRCNGSGFCECKTGTTGPKCDECLPGNSWHYGCQPNVCDN; listed as Homo sapiens) with Pseudomonas aeruginosa - MIC (μg/mL) P. aeruginosa? 50

# returns recorded MIC (μg/mL) P. aeruginosa (system: Pseudomonas aeruginosa) for PRT248 (DVDECSARRGGCPQRCVNTAGSYWCQCWEGHSLSADGTLCV; listed as Homo sapiens) 12.5

====

Test system: Moraxella catarrhalis
Assay: MIC against Gram-negative bacteria: Moraxella catarrhalis
Assay type: cell-based
Details: Moraxella catarrhalis; 96-well plate, 5×10^5 CFU/mL, 37° C., 10 h
Overview of recorded MIC (μg/mL) M. catarrhalis for various substances
Field format: number, assumed µg/mL, no unit text.

PRT25 (PGVCRNGGTCTDAPNGGFRCQCPAGGAFEGPRCE; listed as Homo sapiens); 25
PRT4 (LDVTCNIKNGRCEQFCKNSADNKVVCSCTEGYRLAENQKSCE; listed as Homo sapiens); 25

What measured MIC (μg/mL) M. catarrhalis is associated with PRT69 (RRNFCDGRRCQNGGTCVNRWNMYLCECPLRFGGKNCE; listed as Homo sapiens) on Moraxella catarrhalis? 12.5

Request: MIC (μg/mL) M. catarrhalis, test system Moraxella catarrhalis, entry PRT23 (KKNPCNAEFQNFCIHGECKYIEHLEAVTCKCQQEYFGERCG; listed as Homo sapiens) 25

Request: MIC (μg/mL) M. catarrhalis, test system Moraxella catarrhalis, entry PRT95 (DINECETGQHNCVPNSVCINTRGSFQCGPCQPGFVGDQASGCQ; listed as Homo sapiens) 12.5

Tell me reported MIC (μg/mL) M. catarrhalis for PRT42 (CQCNGHSKCINQSICEKCENLTTGKHCETCISGFYGDPTNGGKCQP; listed as Homo sapiens) , tested with Moraxella catarrhalis. 12.5

Item PRT30 (PCDCYPVGSTSRSCAPHSGQCPCRPGALGRQCNSCDSPF; listed as Homo sapiens) with Moraxella catarrhalis - MIC (μg/mL) M. catarrhalis? 50

What measured MIC (μg/mL) M. catarrhalis is associated with PRT5 (DGDQCETSPCQNQGKCKDGLGEYTCTCLEGFEGKNCE; listed as Homo sapiens) on Moraxella catarrhalis? 25

API: value(readout= MIC (μg/mL) M. catarrhalis, system= Moraxella catarrhalis, query= PRT87 (DACLLNPCQNQGSCRHLPGAPHGYTCDCVGGYFGHHCE; listed as Homo sapiens) ) 25

What value of MIC (μg/mL) M. catarrhalis on Moraxella catarrhalis does PRT75 (DDNICLREPCENYMRCVSVLRFDSSAPFIASSSVLFRPIHPVGGLRCRCPPGFTGDYCE; listed as Homo sapiens) have? 12.5

Hi! What's the reported MIC (μg/mL) M. catarrhalis for PRT110 (DIDECASSNGTLCAHICINTLGSYRCECREGYIREDDGKTCT; listed as Homo sapiens) on Moraxella catarrhalis? 50

// map PRT1494 (KALCTPRCMNGGLCVTPGFCICPPGFYGVNCD; listed as Homo sapiens) to recorded MIC (μg/mL) M. catarrhalis (system: Moraxella catarrhalis) 25

====

Tested on: E. coli DH5α
Experiment: Antibacterial activity: MIC and growth curve against E. coli DH5α in 96-well plate
Assay type: cell-based
Conditions: minimal inhibitory concentration against E. coli DH5α; 96-well plate, 5×10^5 CFU/mL, 37° C., judged after 8 h
measurement_name: MIC (µg/mL)
Just the number in µg/mL, nothing appended.

Guide cases for MIC, answers given:
PRT195 (MGYNCNATTKCKGKGICNNFGNCQCFPGHRPPDCK; listed as Homo sapiens); 25
PRT730 (NGNSCSDFNGGCTHECVQEPFGAKCLCPLGFLLANDSKTCE; listed as Homo sapiens); 25
PRT1480 (PGPCDSQPCQNGGTCVPEGLDGYQCLCPLAFGGEANCA; listed as Homo sapiens); 50
PRT1472 (LEHPCASLCCGHGTCIDGIGSFSCDCRSGWEGRFCQ; listed as Homo sapiens); 50
PRT1379 (GWPSCPGDCQGRGRCVQGVCVCRAGFSGPDC; listed as Homo sapiens); 50

Which measured MIC belongs to PRT929 (QIDECYSSPCLNDGRCIDLVNGYQCNCQPGTSGVNCE; listed as Homo sapiens) , tested on E. coli DH5α? 100

For the record PRT957 (APPCLDGSPCANGGRCTQLPSREAACLCPPGWVGERCQ; listed as Homo sapiens) , what value of MIC is listed for E. coli DH5α? 12.5

Provide value of MIC for this record tested with E. coli DH5α: PRT1374 (GVRQCPNDCSQHGVCQDGVCICWEGYVSEDC; listed as Homo sapiens) 50

Report MIC for PRT40 (KGIDCSDGFNGGCEQLCLQQTLPLPYDATSSTIFMFCGCVEEYKLAPDGKSCL; listed as Homo sapiens) tested on E. coli DH5α. 25

What MIC appears in the records for this substance with E. coli DH5α? PRT1023 (PINYCETGLHNCDIPQRAQCIYTGGSSYTCSCLPGFSGDGQACQ; listed as Homo sapiens) 25

What reported MIC corresponds to PRT1074 (QYRQCSGYCENFGTCQMAADGSRQCRCTAYFEGSRCE; listed as Homo sapiens) on E. coli DH5α? 50
